Molecular target: TNFα / TNFα receptor (TNFα R1/Fc) (Homo sapiens)
Construct: purchased R&D Systems
Sequence (P01375 77-233 limits assumed, species assumed): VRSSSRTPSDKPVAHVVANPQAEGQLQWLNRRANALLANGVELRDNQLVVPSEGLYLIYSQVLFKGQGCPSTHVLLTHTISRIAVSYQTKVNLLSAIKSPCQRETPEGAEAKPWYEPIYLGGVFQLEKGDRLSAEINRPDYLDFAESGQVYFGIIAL
Test: Inhibition of binding of TNFα to the TNFα receptor (plate ELISA competition)
Conditions: Table 2; read-out: Activity (IC50, inhibition of TNFα binding to TNFα R1/Fc)
pIC50: −log10 of the molar value. Numbered stars: 1 amine (or outer) side, 2 acyl side, 3 side chain; on linkers, the order of the positions; unused ones are H or OH. Bridge positions count the residues as written; N and C are the ends. Square brackets hold non-standard residues; d marks the D form. Peptide text beside a SMILES is read from it. Bip = N[C@@H](Cc1ccc(-c2ccccc2)cc1)C(=O)O; Phe(4-NH2) = Nc1ccc(C[C@H](N)C(=O)O)cc1; 2Thi = N[C@@H](Cc1cccs1)C(=O)O; Suc = O=C(CCC(=O)[*:2])[*:1]
Readout Type: pIC50

O=C1CCC(=O)N[C@@H](Cc2cccs2)C(=O)N[C@@H](Cc2ccc(-c3ccccc3)cc2)C(=O)N[C@H](Cc2ccccc2)C(=O)N[C@H](C(=O)O)Cc2ccc(cc2)N1 [Compound 43] ([2Thi][Bip][dF][Phe(4-NH2)]-OH; linker N-4 via Suc) ... < 4.00
O=C(Nc1ccc(-c2ccc(C[C@@H]3NC(=O)[C@@H](Cc4cccs4)NC(=O)[C@H](O)[C@@H](O)C(=O)Nc4ccc(cc4)C[C@@H](C(=O)O)NC(=O)[C@@H](Cc4ccccc4)NC3=O)cc2)cc1)OCc1ccccc1 ... 4.52 to 5.00
C[C@H](NC(=O)[C@@H]1Cc2ccc(cc2)OCC(=O)N[C@@H](Cc2cccs2)C(=O)N[C@H](Cc2ccc(-c3ccccc3)cc2)C(=O)N[C@@H](CCc2ccccc2)C(=O)N1)C(=O)O ... > 5.00

Now consider a different compound.
O=C1COc2ccc(cc2)C[C@@H](C(=O)O)NC(=O)[C@H](Cc2ccccc2)NC(=O)[C@H](Cc2ccc(-c3ccccc3)cc2)NC(=O)[C@H](Cc2ccc(OCc3ccccc3)cc2)N1 on TNFα / TNFα receptor (TNFα R1/Fc) (Homo sapiens) gives pIC50 = < 4.00

###

Tested on: TNF-α (degradation of IkB in HeLa cells or A431 cells)
Test: Human cell-based assay: inhibition of TNF-α induced degradation of IkB
Settings: 10 μM compound, HeLa or A431 cells, read-out: Inhibition at Various Compound Concentrations, 10 μM
Numbered stars: 1 amine (or outer) side, 2 acyl side, 3 side chain; on linkers, the order of the positions; unused ones are H or OH. Bridge positions count the residues as written; N and C are the ends. Square brackets hold non-standard residues; d marks the D form. Peptide text beside a SMILES is read from it. Tartaroyl(2R,3R-(OAc)2) = CC(=O)O[C@@H](C(=O)[*:1])[C@@H](OC(C)=O)C(=O)[*:2]; Bip = N[C@@H](Cc1ccc(-c2ccccc2)cc1)C(=O)O; dPhe(4-NH2) = Nc1ccc(C[C@@H](N)C(=O)O)cc1; d(hPhe) = N[C@H](CCc1ccccc1)C(=O)O; d2Thi = N[C@H](Cc1cccs1)C(=O)O
Readout Type: inhibition at 10 µM

Known results for compounds:
O=C1COc2ccc(cc2)C[C@@H](C(=O)O)NC(=O)[C@H](CCc2ccccc2)NC(=O)[C@@H](Cc2ccc(-c3ccccc3)cc2)NC(=O)[C@H](Cc2cccs2)N1 [Compound 348] ... 50 to 80%
C[C@@H](NC(=O)[C@@H]1Cc2ccc(cc2)OCC(=O)N[C@@H](Cc2cccs2)C(=O)N[C@@H](Cc2ccc(-c3ccccc3)cc2)C(=O)N[C@@H](Cc2ccccc2)C(=O)N1)C(=O)O [Compound 341] ... < 10%
O=C(O)CCNC(=O)[C@@H]1Cc2ccc(cc2)OCC(=O)N[C@H](Cc2cccs2)C(=O)N[C@@H](Cc2ccc(-c3ccccc3)cc2)C(=O)N[C@H](CCc2ccccc2)C(=O)N1 [Compound 301] ... < 10%

Per the record, O=C(O)CNC(=O)[C@@H]1Cc2ccc(cc2)OCC(=O)N[C@H](Cc2cccs2)C(=O)N[C@@H](Cc2ccc(-c3ccccc3)cc2)C(=O)N[C@H](CCc2ccccc2)C(=O)N1 [Compound 321] has inhibition at 10 µM of 10 to 50%

Measured inhibition at 10 µM, O=C(O)[C@@H]1Cc2ccc(cc2)NC(=O)[C@H](O)[C@@H](O)C(=O)N[C@H](Cc2cccs2)C(=O)N[C@@H](Cc2ccc(-c3ccccc3)cc2)C(=O)N[C@H](Cc2ccccc2)C(=O)N1 [Compound 4] : < 10%

Value of inhibition at 10 µM reported for the compound NCCCC(=O)N[C@H]1CC(=O)N[C@H](Cc2cccs2)C(=O)N[C@@H](Cc2ccc(-c3ccccc3)cc2)C(=O)N[C@H](Cc2ccccc2)C(=O)N[C@H](C(=O)O)Cc2ccc(cc2)NC1=O [Compound 381] is < 10%

So for O=C(O)[C@H](Cc1ccccc1)NC(=O)[C@@H]1Cc2ccc(cc2)NC(=O)[C@H](O)[C@@H](O)C(=O)N[C@H](Cc2cccs2)C(=O)N[C@@H](Cc2ccc(-c3ccncc3)cc2)C(=O)N[C@H](Cc2ccccc2)C(=O)N1 [Compound 442] , the logged inhibition at 10 µM turned out to be 10 to 50%

Input CC(=O)O[C@H]1C(=O)Nc2ccc(cc2)C[C@H](C(=O)O)NC(=O)[C@@H](CCc2ccccc2)NC(=O)[C@H](Cc2ccc(-c3ccccc3)cc2)NC(=O)[C@@H](Cc2cccs2)NC(=O)[C@@H]1OC(C)=O [Compound 217] ([d2Thi][Bip][d(hPhe)][dPhe(4-NH2)]-OH; linker N-4 via Tartaroyl(2R,3R-(OAc)2)) . Output inhibition at 10 µM: < 10%

# inhibition at 10 µM of O=C1N[C@H](CCc2ccccc2)C(=O)N[C@@H](C(=O)O)Cc2ccc(cc2)NC(=O)[C@H](O)[C@@H](O)C(=O)N[C@H](Cc2ccccc2)C(=O)N[C@H]1Cc1ccc(Br)cc1 [Compound 237] = < 10%
